These data points were gathered from ChEMBL document CHEMBL1641594.

protocol description: Cytotoxicity against mouse LMTK cells after 72 hrs by MTT assay
Type: cell-based
settings: L-M(TK-)
attribute measured: IC50 (µM)
Give the number; µM is assumed, so skip it.

// IC50 lookup, key: COC1=C(F)C(=O)c2c(F)c(F)c(F)c(F)c2C1=O
13.7

// IC50 lookup, key: COC1=C(OC)C(=O)c2c(F)c(F)c(F)c(F)c2C1=O
8.6

// IC50 lookup, key: O=C1C=C(SCCO)C(=O)c2c(F)c(F)c(F)c(F)c21
25

// IC50 lookup, key: CN(CCO)C1=C(F)C(=O)c2c(F)c(F)c(F)c(F)c2C1=O
44.5

// IC50 lookup, key: O=C1C(F)=C(NCCO)C(=O)c2c(F)c(F)c(F)c(F)c21
11.7

// IC50 lookup, key: O=C1C(F)=C(N(CCO)CCO)C(=O)c2c(F)c(F)c(F)c(F)c21
52.7

// IC50 lookup, key: O=C1C(F)=C(N2CCOCC2)C(=O)c2c(F)c(F)c(F)c(F)c21
30

====

Assignment: determine reported pIC50 for the given compounds.
Tested on: MCF7
protocol description: Cytotoxicity against human MCF7 cells after 72 hrs by MTT assay
Format: functional, cell-based
settings: MCF7, 72 h
As a rule, pIC50 stands for the negative log10 of the concentration, concentration in M.

// pIC50 lookup, key: COC1=C(F)C(=O)c2c(F)c(F)c(F)c(F)c2C1=O
4.58

// pIC50 lookup, key: O=C1C(F)=C(N(CCO)CCO)C(=O)c2c(F)c(F)c(F)c(F)c21
5.12

// pIC50 lookup, key: COC1=C(OC)C(=O)c2c(F)c(F)c(F)c(F)c2C1=O
5.22

// pIC50 lookup, key: O=C1C=C(SCCO)C(=O)c2c(F)c(F)c(F)c(F)c21
4.89

// pIC50 lookup, key: O=C1C(F)=C(N2CCOCC2)C(=O)c2c(F)c(F)c(F)c(F)c21
5.24

// pIC50 lookup, key: O=C1C(F)=C(NCCO)C(=O)c2c(F)c(F)c(F)c(F)c21
5.24

// pIC50 lookup, key: CN(CCO)C1=C(F)C(=O)c2c(F)c(F)c(F)c(F)c2C1=O
5.62

====

Tested on: RPMI-8226
protocol description: Cytotoxicity against human RPMI8226 cells after 72 hrs by MTT assay
Assay type: functional, cell-based
settings: RPMI-8226, 72 h
attribute measured: IC50 (µM)
Give the number; µM is assumed, so skip it.

// IC50 lookup, key: O=C1C=C(SCCO)C(=O)c2c(F)c(F)c(F)c(F)c21
2.9

// IC50 lookup, key: COC1=C(F)C(=O)c2c(F)c(F)c(F)c(F)c2C1=O
4

// IC50 lookup, key: O=C1C(F)=C(N(CCO)CCO)C(=O)c2c(F)c(F)c(F)c(F)c21
5.1

// IC50 lookup, key: COC1=C(OC)C(=O)c2c(F)c(F)c(F)c(F)c2C1=O
0.96

// IC50 lookup, key: O=C1C(F)=C(N2CCOCC2)C(=O)c2c(F)c(F)c(F)c(F)c21
6

// IC50 lookup, key: O=C1C(F)=C(NCCO)C(=O)c2c(F)c(F)c(F)c(F)c21
1.2

// IC50 lookup, key: CN(CCO)C1=C(F)C(=O)c2c(F)c(F)c(F)c(F)c2C1=O
5.6

====

protocol description: Cytotoxicity against PMF at 25 ug/ml after 72 hrs by MTT assay
settings: mouse, PMF cells; read-out: INH
attribute measured: cytotoxicity at 72 h, 25 ug/ml (%)
Give the number; % is assumed, so skip it.

// cytotoxicity at 72 h, 25 ug/ml lookup, key: O=C1C(F)=C(N2CCOCC2)C(=O)c2c(F)c(F)c(F)c(F)c21
45

====

protocol description: Cytotoxicity against PMF after 72 hrs by MTT assay
Parameters: species or system Mus musculus
attribute measured: pIC50
As a rule, pIC50 stands for the negative log10 of the concentration, concentration in M.

// pIC50 lookup, key: CN(CCO)C1=C(F)C(=O)c2c(F)c(F)c(F)c(F)c2C1=O
4.60

// pIC50 lookup, key: O=C1C(F)=C(NCCO)C(=O)c2c(F)c(F)c(F)c(F)c21
5.48

// pIC50 lookup, key: COC1=C(F)C(=O)c2c(F)c(F)c(F)c(F)c2C1=O
5.05

// pIC50 lookup, key: O=C1C(F)=C(N(CCO)CCO)C(=O)c2c(F)c(F)c(F)c(F)c21
4.47

// pIC50 lookup, key: COC1=C(OC)C(=O)c2c(F)c(F)c(F)c(F)c2C1=O
4.72

// pIC50 lookup, key: O=C1C=C(SCCO)C(=O)c2c(F)c(F)c(F)c(F)c21
4.52
